# Tested on: A549 NSCLC
# MEASUREMENT PROTOCOL: NCI tumour cell line growth inhibition, 48 h
# TGI annotations

{"COMPOUND": "O=C1C=CC(=O)C(CNc2ccc(C(=O)OC34CC5CC(CC(C5)C3)C4)cc2)=C1", "TGI": "56.9 µM"}
{"COMPOUND": "Cc1ccc(/C(=N\\N=C(N)N)c2ccccc2)cc1", "TGI": "17.3 µM"}
{"COMPOUND": "CC(=O)/C(=C/n1c(=S)[nH]c2ccccc21)C(=O)Nc1ccccc1C", "TGI": "> 100 µM"}
{"COMPOUND": "O=[N+]([O-])c1ccc2nc(-c3ccccn3)c(-c3ccccn3)nc2c1", "TGI": "> 100 µM"}
{"COMPOUND": "CCc1cccc(C(C)C)c1NC(=O)C(=O)CC(=O)c1c(C)n([O-])c2ccccc2[n+]1=O", "TGI": "> 100 µM"}
{"COMPOUND": "C[C@H](NC(=O)[C@@H]1CSSC[C@@H](NC(=O)c2nc3ccccc3cc2O)C(=O)NCC(=O)N1C)c1ccccc1", "TGI": "15.8 µM"}
{"COMPOUND": "O=C(CSCC(=O)N/N=C/c1cccs1)N/N=C/c1cccs1", "TGI": "> 100 µM"}
{"COMPOUND": "CCOC(=O)C1(Br)C(c2ccccc2)NC(=O)NC1(C)Br (stereo not given)", "TGI": "> 100 µM"}
{"COMPOUND": "O=C1CCC2(CCO1)OCCO2", "TGI": "> 100 µM"}
{"COMPOUND": "C1C[OH+]CC[OH+]CCNCC[OH+]CC[OH+]CCN1.[Cl-].[Pt+4]", "TGI": "> 100 µM"}
{"COMPOUND": "COc1ccc(-c2nc3sc(-c4ccc(Cl)cc4)cn3n2)cc1", "TGI": "5.89 µM"}
{"COMPOUND": "Cc1ccc(C(=O)N/N=C(\\N=Nc2cccc(Cl)c2)c2ccc(N(CCC#N)CCC#N)cc2C)cc1", "TGI": "> 100 µM"}
{"COMPOUND": "C=C(CCCCCCCCC)CC(=O)SCCNC(=O)CCNC(=O)C(O)C(C)(C)COP(=O)(O)OP(=O)(O)OCC1OC(n2cnc3c(N)ncnc32)C(O)C1OP(=O)(O)O (stereo not given)", "TGI": "> 100 µM"}
{"COMPOUND": "O=C(NCc1cccc(C(F)(F)F)c1)c1cc2sccc2nc1C(F)(F)F", "TGI": "> 100 µM"}
{"COMPOUND": "C/C(=N\\NC(=S)N1CCCCC1)c1cccc(C)n1", "TGI": "10.6 µM"}
{"COMPOUND": "C=CCN(/C=C1/C(=O)O[C@H](COC)[C@@]2(C)C1=C(O)C(=O)C1=C2[C@H](OC(C)=O)C[C@]2(C)C(=O)CC[C@@H]12)CC=C", "TGI": "> 8.15 µM"}
{"COMPOUND": "O=C1C=C(NCCNC(=S)Nc2ccccc2)c2nccc3c2c1nc1ccccc13", "TGI": "> 100 µM"}
{"COMPOUND": "CC[N+]1(C)CCC(O)(/C=C/c2ccc(OC)cc2)C(C(=O)/C=C/c2ccc(OC)cc2)C1 (stereo not given)", "TGI": "> 58 µM"}
{"COMPOUND": "O=[N+]([O-])c1c(Br)cc(Br)c2c1Nc1c(ccc(Cl)c1Cl)S2", "TGI": "39.5 µM"}
{"COMPOUND": "Nc1ncnc2c1ncn2C1CCC(COS(N)(=O)=O)C1 (stereo not given)", "TGI": "> 100 µM"}

* * *

# Tested on: K-562 leukemia
# MEASUREMENT PROTOCOL: NCI tumour cell line growth inhibition, 48 h; in the data active means GI50 below about 0.43 µM; inactive means the rest
Outcome codes: TRUE = active, FALSE = inactive

{"STRUCTURE SMILES STRING": "C[C@H](NC(=O)[C@@H]1CSSC[C@@H](NC(=O)c2nc3ccccc3cc2O)C(=O)NCC(=O)N1C)c1ccccc1", "QUALITATIVE LABEL": "FALSE"}
{"STRUCTURE SMILES STRING": "CCCC(=O)Nc1cc(C(=O)N2C[C@@H]3C[C@]34C2=CC(=O)c2[nH]cc(C)c24)n(COC)c1", "QUALITATIVE LABEL": "FALSE"}
{"STRUCTURE SMILES STRING": "Cc1ccc(/C(=N\\N=C(N)N)c2ccccc2)cc1", "QUALITATIVE LABEL": "TRUE"}
{"STRUCTURE SMILES STRING": "CCn1c(C(=O)N(C2CC2)C2CC2)cc2c3c(ncn3C)c(Nc3cc(C)n(C)n3)nc21", "QUALITATIVE LABEL": "FALSE"}
{"STRUCTURE SMILES STRING": "O=C(c1ccc2ccccc2c1)c1c(C(F)(F)F)n([O-])c2cc(F)c(F)cc2[n+]1=O", "QUALITATIVE LABEL": "TRUE"}
{"STRUCTURE SMILES STRING": "COc1ccc2c(c1)C(=O)c1c-2n(CCCN=[N+]=[N-])c(=O)c2cc(N(C)C)ccc12", "QUALITATIVE LABEL": "FALSE"}
{"STRUCTURE SMILES STRING": "O=C([CH-]C(=O)c1ccccc1)c1ccccc1.O=C([CH-]C(=O)c1ccccc1)c1ccccc1.O=C([CH-]C(=O)c1ccccc1)c1ccccc1.[Nd+3].[OH3+]", "QUALITATIVE LABEL": "FALSE"}
{"STRUCTURE SMILES STRING": "CN(C)c1ccc([O-])cc1.CN(C)c1ccc([O-])cc1.CN(C)c1ccc([O-])cc1.CN(C)c1ccc([O-])cc1.[Ti+4]", "QUALITATIVE LABEL": "FALSE"}

* * *

# Tested on: SNB-19 CNS
# MEASUREMENT PROTOCOL: NCI tumour cell line growth inhibition, 48 h; in the data active = GI50 below about 0.43 µM; inactive = the rest
Outcome codes: 1.0 for active, 0.0 for inactive

{"COMPOUND": "CC1(C)CC[C@H](Nc2ncc(C(F)(F)F)c(-c3c[nH]c4c(P(C)(C)=O)c(C#N)ccc34)n2)CN1", "QUALITATIVE LABEL": 1.0}
{"COMPOUND": "Cc1c(S(C)(=O)=O)c(-c2cc(F)cc(N3CCN(c4ccc(NS(=O)(=O)c5ccc(N[C@H](CCN6CCC(C(=O)OCCCP(=O)(O)O)CC6)CSc6ccccc6)c(S(=O)(=O)C(F)(F)F)c5)cc4)CC3)c2)c(-c2ccc(Cl)cc2)n1C(C)C", "QUALITATIVE LABEL": 0.0}
{"COMPOUND": "O=C([CH-]C(=O)c1ccccc1)c1ccccc1.O=C([CH-]C(=O)c1ccccc1)c1ccccc1.O=C([CH-]C(=O)c1ccccc1)c1ccccc1.[Nd+3].[OH3+]", "QUALITATIVE LABEL": 0.0}
{"COMPOUND": "COc1ccc(N2Cc3cnc(Nc4ccccc4)nc3N([C@@H]3CC[C@@H](O)C3)C2=O)cc1", "QUALITATIVE LABEL": 0.0}
{"COMPOUND": "CCN(CC)CCNc1ccc([N+](=O)[O-])c2sc3ccccc3c(=O)c12", "QUALITATIVE LABEL": 0.0}
{"COMPOUND": "Clc1ccc(N2N=C(c3cccc(Nc4ccncc4)c3)CC2c2ccc3c(c2)OCO3)cc1 (stereo unspecified)", "QUALITATIVE LABEL": 0.0}
{"COMPOUND": "Oc1ccc(C(c2ccc(O)cc2)c2ccc(Cl)cn2)cc1", "QUALITATIVE LABEL": 0.0}
{"COMPOUND": "COc1ccc2c(c1)C(=O)c1c-2n(CCCN=[N+]=[N-])c(=O)c2cc(N(C)C)ccc12", "QUALITATIVE LABEL": 0.0}
{"COMPOUND": "CCn1c(C(=O)N(C2CC2)C2CC2)cc2c3c(ncn3C)c(Nc3cc(C)n(C)n3)nc21", "QUALITATIVE LABEL": 0.0}
{"COMPOUND": "C=C1SC(=Nc2c(C)cc(C)cc2C)N(C(=O)c2sc3ccccc3c2Cl)C12CCCCC2", "QUALITATIVE LABEL": 0.0}
{"COMPOUND": "CN1CCN(c2ccc(NC(=O)c3nc4ccc5[nH]ncc5c4c4c3CCCC4)cc2C(F)(F)F)CC1", "QUALITATIVE LABEL": 0.0}

* * *

# Test system: COLO 205 colon
# MEASUREMENT PROTOCOL: NCI tumour cell line growth inhibition, 48 h; in the data active = GI50 below about 0.43 µM; inactive = the rest
Outcome codes: true (active), false (inactive)

{"STRUCTURE SMILES STRING": "CC1(C)CC[C@H](Nc2ncc(C(F)(F)F)c(-c3c[nH]c4c(P(C)(C)=O)c(C#N)ccc34)n2)CN1", "TESTED ON": "COLO 205 colon", "QUALITATIVE LABEL": "true"}
{"STRUCTURE SMILES STRING": "C[C@H](NC(=O)[C@@H]1CSSC[C@@H](NC(=O)c2nc3ccccc3cc2O)C(=O)NCC(=O)N1C)c1ccccc1", "TESTED ON": "COLO 205 colon", "QUALITATIVE LABEL": "false"}
{"STRUCTURE SMILES STRING": "O=C1C=C(NCCNC(=S)Nc2ccccc2)c2nccc3c2c1nc1ccccc13", "TESTED ON": "COLO 205 colon", "QUALITATIVE LABEL": "false"}
{"STRUCTURE SMILES STRING": "COc1ccc2c(c1)C(=O)c1c-2n(CCCN=[N+]=[N-])c(=O)c2cc(N(C)C)ccc12", "TESTED ON": "COLO 205 colon", "QUALITATIVE LABEL": "false"}
